# Target Or Test System: CD44v3–v10 protein (Homo sapiens)
# Sequence (P16070 21-699 isoform P16070-4 limits assumed): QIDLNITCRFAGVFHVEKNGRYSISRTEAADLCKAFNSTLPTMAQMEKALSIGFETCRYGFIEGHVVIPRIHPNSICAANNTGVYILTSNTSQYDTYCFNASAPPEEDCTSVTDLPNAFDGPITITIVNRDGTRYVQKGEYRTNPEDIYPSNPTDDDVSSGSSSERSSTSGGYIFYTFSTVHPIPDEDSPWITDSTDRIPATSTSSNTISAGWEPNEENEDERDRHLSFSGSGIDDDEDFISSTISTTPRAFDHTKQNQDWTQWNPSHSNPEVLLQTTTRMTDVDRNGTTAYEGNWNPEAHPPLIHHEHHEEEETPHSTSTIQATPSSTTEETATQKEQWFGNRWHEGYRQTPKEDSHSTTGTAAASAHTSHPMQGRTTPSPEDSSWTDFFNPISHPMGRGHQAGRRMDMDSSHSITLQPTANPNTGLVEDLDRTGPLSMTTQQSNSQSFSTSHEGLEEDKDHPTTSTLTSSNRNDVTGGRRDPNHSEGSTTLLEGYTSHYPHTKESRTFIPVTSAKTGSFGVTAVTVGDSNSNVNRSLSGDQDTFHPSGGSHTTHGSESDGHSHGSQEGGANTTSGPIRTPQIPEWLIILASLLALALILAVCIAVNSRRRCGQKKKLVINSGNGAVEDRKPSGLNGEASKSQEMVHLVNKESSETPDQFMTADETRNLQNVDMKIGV
# Procedure Details: Binding affinity to CD44v3–v10 protein
Where no end group is shown, it is not given here.
Assay Readout: Kd (nM)
Just the number please, in nM, no unit attached.

Reported CD44v3–v10 protein (Homo sapiens) Kd for item ELTVMGYYPGMS [ELT, ELTVMGYYPGMS] was 611
